- targetOrSystem: human IFN-ω (human, UniProt P05000 24-195)
- assayComment: cell-based or functional assay
Here the recorded IC50 (pM), ISRE assay is given for each entry.
Give a bare numeral; the unit pM is implied.

- binder: "IFWM3322 (antibody, IgG1, V domains shown) VH: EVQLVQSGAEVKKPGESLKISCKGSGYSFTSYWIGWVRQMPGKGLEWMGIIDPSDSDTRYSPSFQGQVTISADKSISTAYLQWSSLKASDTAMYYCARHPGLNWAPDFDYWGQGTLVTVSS VL: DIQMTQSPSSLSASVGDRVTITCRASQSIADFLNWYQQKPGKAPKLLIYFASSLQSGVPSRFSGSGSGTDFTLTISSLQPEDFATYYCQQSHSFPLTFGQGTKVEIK"
  measuredValue: 59
- binder: "IFWM3304 (antibody, IgG1, V domains shown) VH: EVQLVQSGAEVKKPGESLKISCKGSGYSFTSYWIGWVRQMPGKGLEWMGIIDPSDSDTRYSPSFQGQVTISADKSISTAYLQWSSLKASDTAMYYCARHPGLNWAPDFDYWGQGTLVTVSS VL: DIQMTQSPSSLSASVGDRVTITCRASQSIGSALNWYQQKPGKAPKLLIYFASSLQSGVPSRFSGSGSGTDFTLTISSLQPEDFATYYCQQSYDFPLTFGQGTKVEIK"
  measuredValue: 31
- binder: "IFWM3410 (antibody, IgG1, V domains shown) VH: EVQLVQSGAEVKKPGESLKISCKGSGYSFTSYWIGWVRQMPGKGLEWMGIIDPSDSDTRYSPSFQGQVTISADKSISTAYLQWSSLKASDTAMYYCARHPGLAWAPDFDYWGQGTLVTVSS VL: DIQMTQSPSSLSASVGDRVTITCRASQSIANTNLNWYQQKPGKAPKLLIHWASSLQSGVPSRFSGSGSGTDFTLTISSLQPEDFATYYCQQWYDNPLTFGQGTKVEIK"
  measuredValue: 89

Let's switch to this binder now.
# input What IC50 (pM), ISRE assay value was documented for this binder, IFWM3328 (antibody, IgG1, V domains shown) VH: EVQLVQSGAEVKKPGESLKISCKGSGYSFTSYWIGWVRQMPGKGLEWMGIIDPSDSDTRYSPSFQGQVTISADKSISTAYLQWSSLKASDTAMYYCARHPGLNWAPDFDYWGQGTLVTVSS VL: DIQMTQSPSSLSASVGDRVTITCRASQSINNLNWYQQKPGKAPKLLIYWASSLQSGVPSRFSGSGSGTDFTLTISSLQPEDFATYYCQQGYDTPFTFGQGTKVEIK ?
# output 456
